Molecular target: T1, rat APJ receptor (rat, UniProt Q9JHG3 1-377)
T1 sequence (looked up): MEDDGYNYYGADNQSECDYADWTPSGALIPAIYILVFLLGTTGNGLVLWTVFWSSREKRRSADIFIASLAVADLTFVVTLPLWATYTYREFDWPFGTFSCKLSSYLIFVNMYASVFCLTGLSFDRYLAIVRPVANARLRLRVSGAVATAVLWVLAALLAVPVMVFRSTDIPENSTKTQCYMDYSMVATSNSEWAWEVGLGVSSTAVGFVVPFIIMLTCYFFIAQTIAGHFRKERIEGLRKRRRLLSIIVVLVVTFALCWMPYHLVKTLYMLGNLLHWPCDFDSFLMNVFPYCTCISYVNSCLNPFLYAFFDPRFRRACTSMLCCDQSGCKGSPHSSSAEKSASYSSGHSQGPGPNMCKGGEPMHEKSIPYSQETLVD
Assay: cell-based or functional assay
Starred links: 1 amine or outer side, 2 acyl side, 3 side chain; linkers in the order of their positions; H or OH if unused. Non-standard residues stand in square brackets, D forms with d. Primed or numbered codes have the meaning given here. *: point of attachment. AC4Abu = α-carboxy-4-aminobutyric acid, O=C(C(CCN[*:1])C(=O)[*:3])[*:2]; Oic = O=C(O)[C@@H]1C[C@@H]2CCCC[C@@H]2N1; Phe(4-Cl) = N[C@@H](Cc1ccc(Cl)cc1)C(=O)O; γGlu = O=C(O)[C@H](CCC(=O)[*:2])N[*:1]; NMehArg = CN[C@@H](CCCCNC(=N)N)C(=O)O; NMeR = CN[C@@H](CCCNC(=N)N)C(=O)O; Palmitoyl = CCCCCCCCCCCCCCCC(=O)*; Tridecanoyl = CCCCCCCCCCCCC(=O)*; hArg = N=C(N)NCCCC[C@H](N)C(=O)O; Cha = N[C@@H](CC1CCCCC1)C(=O)O; β3hN = NC(=O)C[C@H](N)CC(=O)O; AC4Abu″ = not defined here; β3hP = O=C(O)C[C@@H]1CCCN1; Pip = O=C(O)[C@@H]1CCCCN1; Nle = CCCC[C@H](N)C(=O)O; AEEA = NCCOCCOCC(=O)O; Aib = CC(C)(N)C(=O)O
Measured property: EC50 Rat APJ Receptor (nM)
Lab book: enter the figure in nM, no units written.

// solved cases for EC50 Rat APJ Receptor follow
{"Binder": "XXXQRPRLSHKGPXPF ({hexanoyl}[AC4Abu][Aeea][Aeea]QrP[hArg][aMeLeu]SHKGP[Nle]P[4-Cl-F]{COOH}) [SEQ ID NO: 514]", "Unit spec": "nM", "Reading": 6.69}
{"Binder": "Palmitoyl-[AC4Abu][AEEA][AEEA][dQ]RP[NMeR][Cha]SHKG[Pip][Aib][Phe(4-Cl)]-OH (SMILES CCCCCCCCCCCCCCCC(=O)NCCC(C(=O)O)C(=O)NCCOCCOCC(=O)NCCOCCOCC(=O)N[C@H](CCC(N)=O)C(=O)N[C@@H](CCCNC(=N)N)C(=O)N1CCC[C@H]1C(=O)N(C)[C@@H](CCCNC(=N)N)C(=O)N[C@@H](CC1CCCCC1)C(=O)N[C@@H](CO)C(=O)N[C@@H](Cc1c[nH]cn1)C(=O)N[C@@H](CCCCN)C(=O)NCC(=O)N1CCCC[C@H]1C(=O)NC(C)(C)C(=O)N[C@@H](Cc1ccc(Cl)cc1)C(=O)O) [SEQ ID NO: 581]", "Unit spec": "nM", "Reading": 5.85}
{"Binder": "XXXQRPRLSHKGPXPF ({Butanoyl}[AC4Abu][Aeea][Aeea]QRP[NMeArg]LSHKGP[Nle]P[4-Cl-F]{COOH}) [SEQ ID NO: 491]", "Unit spec": "nM", "Reading": 0.453}

Query: Fill in the blank: the reported EC50 Rat APJ Receptor of XXXLRPRLSHKGPXPF ({TDA}[AC4Abu][Aeea][Aeea][BhLeu]RP[NMeArg]LSHKGP[Nle]P[4-Cl-F]{COOH}) [SEQ ID NO: 421] is ____.
Result: 0.285

Query: GET /values?readout=EC50 Rat APJ Receptor&item= QRPRLSHKGPXPF ({H2}[MerPr](10K mPEG acetamide)QRP[NMeArg]LSHKGP[Nle]P[4-Cl-F]{COOH}) [SEQ ID NO: 115]
Result: 6.49

Query: Which EC50 Rat APJ Receptor is listed for XXXQRPRLSHKGPXPF ({pIFBu}[AC4Abu][Aeea][Aeea]QRP[NMeArg]LSHKGP[Nle]P[4-Cl-F]{COOH}) [SEQ ID NO: 118] ?
Result: 0.171

Query: Look at this binder and give its reported EC50 Rat APJ Receptor. Ac-QR[NMehArg]LSHKGP[Nle]P[Phe(4-Cl)]-OH (SMILES CCCC[C@H](NC(=O)[C@@H]1CCCN1C(=O)CNC(=O)[C@H](CCCCN)NC(=O)[C@H](Cc1c[nH]cn1)NC(=O)[C@H](CO)NC(=O)[C@H](CC(C)C)NC(=O)[C@H](CCCCNC(=N)N)N(C)C(=O)[C@H](CCCNC(=N)N)NC(=O)[C@H](CCC(N)=O)NC(C)=O)C(=O)N1CCC[C@H]1C(=O)N[C@@H](Cc1ccc(Cl)cc1)C(=O)O) [SEQ ID NO: 73]
Result: 47.2

Query: What does the record list as EC50 Rat APJ Receptor for Palmitoyl-[γGlu][AEEA][AEEA][dQ]RP[NMeR][Cha]SHKG[Oic][Nle]P[dAMF]-OH [SEQ ID NO: 607] ?
Result: 0.55

Query: Any idea what EC50 Rat APJ Receptor was measured for Tridecanoyl-[AC4Abu″][AEEA][AEEA][hArg][hArg]Q[hArg]P[NMeR][Cha]SHKG[Oic][Nle]P[Phe(4-Cl)]-OH (reading uncertain) [SEQ ID NO: 309] ?
Result: 0.215

Query: # input binder: Palmitoyl-[γGlu][AEEA][AEEA][dQ]RP[NMeR][Cha]SHKG[Oic][Nle][β3hP][dAMF]-OH [SEQ ID NO: 612] ; wanted: its EC50 Rat APJ Receptor
Result: 4.62

Query: EC50 Rat APJ Receptor for Tridecanoyl-[γGlu][AEEA][AEEA][β3hN]RP[NMeR]LSHKGP[Nle]P[Phe(4-Cl)]-OH (SMILES CCCCCCCCCCCCC(=O)N[C@@H](CCC(=O)NCCOCCOCC(=O)NCCOCCOCC(=O)N[C@@H](CC(N)=O)CC(=O)N[C@@H](CCCNC(=N)N)C(=O)N1CCC[C@H]1C(=O)N(C)[C@@H](CCCNC(=N)N)C(=O)N[C@@H](CC(C)C)C(=O)N[C@@H](CO)C(=O)N[C@@H](Cc1c[nH]cn1)C(=O)N[C@@H](CCCCN)C(=O)NCC(=O)N1CCC[C@H]1C(=O)N[C@@H](CCCC)C(=O)N1CCC[C@H]1C(=O)N[C@@H](Cc1ccc(Cl)cc1)C(=O)O)C(=O)O) [SEQ ID NO: 420] ?
Result: 0.0838

All figures here come from patent US10941182.
